Data provenance is PubChem BioAssay.

Overview of reported composite z-score across a group of compounds:
system: Human papillomavirus type 1a protein E7 (residues 44-93); assay: HPV1a E7 fragment binders on microarrays, primary screen, biochemical, small-molecule microarray, residues 44-93, 635 nm fluorescence (AID 1108); conditions: small-molecule microarray binding, fluorescence 635 nm; higher = more signal;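 further: E7 fragment applied at 1 µg/mL in TBST for 1 h at 4 C; score combines spot fluorescence with its signal to noise ratio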
I only need the number, thanks.

Worked cases, answers included:
O=C(CS)NCCCCCCNC(=O)[C@@H]1C[C@@H]2C(=O)NCC(=O)N2[C@@H]1c1cccc(OCCO)c1 | 1.41
C=CC[C@@]12N=C(c3ccc(OCCCO)cc3)O[C@@H]1c1ccccc1N(C)C2=O | 1.16

Q: Read off the recorded composite z-score for O=C1O[C@@H](c2ccccc2)[C@@H](c2ccccc2)N2[C@@H](c3ccccc3OCCO)[C@]3(C(=O)Nc4ccc(C#CC5=CCCCC5)cc43)[C@@H](C(=O)N3CCCCCCC3)[C@H]12
Result: 1.52

Q: Return the recorded composite z-score value; entry: C=CCNC(=O)[C@H]1[C@@H]2C(=O)O[C@@H](c3ccccc3)[C@@H](c3ccccc3)N2[C@@H](c2ccccc2OCCO)[C@]12C(=O)Nc1ccc(C#CCC(C(=O)OC)C(=O)OC)cc12
Result: 1.46

Q: Consider the compound CCCC#C[Si](O[C@H](CC)c1cn(Cc2cccc(Cl)c2)nn1)(C(C)C)C(C)C and give its recorded composite z-score.
Result: 1.3

Q: Quick one: give measured composite z-score for CC(C)=CCCC(C)=CC(O)C1C=CC2C(=O)N(C)C(=O)C2N1Nc1ccccc1 (centres undefined)
Result: 1.45

Q: Check the records and state composite z-score for O=C1OCCC/C=C\[C@H]2OC34C=CCN(Cc5ccccc5)C(=O)[C@H]3N(CCCO)C(=O)[C@@H]4C12 (some centres undefined)
Result: 0.0636

Q: Give the value of composite z-score reported for the following: CC(CO)N1C(=O)[C@@H]2C3C(=O)OCCC/C=C\[C@H]3OC23C=CCN(C(C)(C)C)C(=O)[C@@H]13 (some centres undefined)
Result: -0.898

Q: Return composite z-score for the following compound: CCCCCCc1nc(-c2ccc(OC)nc2)cc2c1[Si](C(C)C)(C(C)C)O[C@H]2c1ccccc1
Result: -0.103

Q: Return reported composite z-score. Input compound: CO[C@H]1O[C@H](CO)[C@@H](OC(=O)Nc2cccc(F)c2)[C@H](OC(=O)Nc2ccccc2)[C@@H]1OC(=O)Nc1ccccc1
Result: 1.26

Q: Return value of composite z-score for input C=C[C@H](C)[C@@H](OC(=O)Nc1ccc(OC)cc1)c1ccc(O)c2ccccc12 , no commentary.
Result: -0.626

Q: Give composite z-score for the following compound: COC(=O)C[C@H]1O[C@]2(C(=O)N(C)c3ccccc32)[C@@H](C)[C@@H]1[Si](C)(C)F
Result: 0.882

Q: Specify reported composite z-score for the compound shown: C=C(/C(=C/C[C@H](OC(C)=O)c1ccc(CO)o1)c1cc(C(=O)OC)ccc1OC)C(C)C
Result: -0.3

Q: Output measured composite z-score for this item: [N-]=[N+]=NCc1ccccc1[C@@H]1OC(c2ccc(OCCCO)cc2)=N[C@]1(Cc1ccccc1)C(N)=O
Result: 1.45

* * *

assay: modulators of HCV replicon luciferase signal, primary screen, HCV replication inhibitor project, Huh7 cells, luciferase reporter (AID 1109); details: 48 h, higher = more signal;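 further: huh7 hepatoma cells harbouring a luciferase neomycin HCV replicon reporter; luciferase luminescence as measure of HCV replicon replication; test concentration not given here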
MEASUREMENT KIND: z-score
Reply briefly: the number, and no unit.

CC(C)C(=C=CC[C@@H](O)c1ccc(OCCO)cc1)C[C@@H](O)c1ccccn1 | -0.218
O=C1N(Cc2ccccc2)c2ccccc2[C@@H]2OC(c3ccc(OCCCO)cc3)=N[C@]12CCS(=O)(=O)c1ccccc1 | -1.38
CCOC(=O)C[C@H]1[C@H](OC(=O)c2ccc(C(=O)c3ccccc3)cc2)[C@@H](NC(=O)CC(C)C)c2cc(OCCCO)ccc2N1C(=O)c1ccc2ccccc2n1 | -1.22
CC(CO)N1C(=O)[C@@H]2C3C(=O)OCCC/C=C\[C@H]3OC23C=CCN(C(C)(C)C)C(=O)[C@@H]13 (some centres not stated) | 0.367
COC(=O)[C@]1(CCC(=O)OC(C)(C)C)N=C(c2ccc(OCCCO)cc2)O[C@@H]1c1ccccc1CN=[N+]=[N-] | -3.32
C=C(CCCC)/C(=C/C[C@H](OC(=O)c1ccncc1)c1ccccc1OCCO)c1cnc2ccccc2c1 | -2.82
COCCOC(=O)N1C(=O)[C@@]2(c3ccccc31)[C@H](C(=O)N1CCc3cc(OC)c(OC)cc3C1)[C@H]1C(=O)O[C@H](c3ccccc3)[C@H](c3ccccc3)N1[C@@H]2c1ccc(OCCO)cc1 | -1.39
[N-]=[N+]=Nc1ccccc1[C@H]1OC(c2ccc(OCCCO)cc2)=N[C@@]1(CCS(=O)(=O)c1ccccc1)C(=O)NCC(O)CO (some centres not stated) | -0.604

Q: State, in one line, measured z-score of C=CCC(OC(C)=O)[C@@H]1[C@@H](N(Cc2ccc(-c3cccc(C(F)(F)F)c3)o2)C(=O)c2ccc(C)cc2)c2cc(OCCCO)ccc2N1C(=O)Cc1ccc2ccccc2c1 (some centres not stated)
Result: 0.237

Q: Item COc1cc(Br)cc(C(O)C2C=CC3C(=O)N(C)C(=O)C3N2N2CCCCC2)c1OC (configuration not stated) : provide z-score
Result: -0.0024

Q: Indicate the recorded z-score value for this compound: O=C1c2ccccc2[C@](Cc2ccccc2I)(C(=O)NCC(F)(F)F)[C@H](c2ccc(CO)cc2)N1Cc1ccccc1Cl
Result: -0.798

Q: Provide one value: measured z-score of COC(=O)[C@@]1(Cc2ccc(OC)cc2)[C@H]2c3cc(C(=O)N4CCCC4)n(Cc4ccc(O)c(OC)c4)c3C[C@H]2CN1C(=O)c1ccccc1
Result: -1.78

Q: Indicate the recorded z-score value for this compound: COC(=O)[C@@]1(Cc2ccc(F)cc2)[C@H]2c3cc(C(=O)N(C)C)n(Cc4cc(F)c(F)c(F)c4)c3C[C@H]2CN1C(=O)c1ccccc1
Result: -2.75

Q: In one line, give reported z-score of the entry O=C(N1CCCCC1)[C@]1(Cc2ccccc2)N=C(c2ccc(OCCCO)cc2)O[C@@H]1c1ccccc1 .
Result: -3.4

Q: Give a short answer stating reported z-score for CC(=O)NCCCC[C@@H]1NC(=O)[C@H]2C[C@@H](C(=O)NCCCCCCNC(=O)CS)[C@@H](c3ccc(O)cc3)N2C1=O .
Result: -0.532

Q: Tell me z-score reported for COC(=O)C(CC#Cc1ccc2c(c1)[C@]1(C(=O)N2)[C@H](C(=O)Nc2nc3ccccc3s2)[C@H]2C(=O)O[C@H](c3ccccc3)[C@H](c3ccccc3)N2[C@@H]1c1ccc(O)cc1)C(=O)OC
Result: -0.801

Q: Fill in z-score for record C=CCN1C(=O)[C@@]2(Cc3ccccc31)N=C(c1ccc(OCCCO)cc1)O[C@H]2c1ccccc1
Result: -2.11

* * *

experiment: basal 3T3-L1 adipocyte mitochondrial potential changes, profiling panel, cell-based, JC-1 fluorescence, 3T3-L1 adipocytes, 24 h, 100 nL compound (AID 1168); conditions: JC-1 mitochondrial fluorescence, higher = more signal, called active from +8 up or from −8 down; further: test concentration not given here
MEASUREMENT KIND: z-score
Lab note: write the figure by itself, no unit.

Consider the following illustrative entries.
[N-]=[N+]=Nc1ccccc1[C@H]1OC(c2ccc(OCCCO)cc2)=N[C@@]1(CCS(=O)(=O)c1ccccc1)C(=O)NCC(O)CO (stereo partly specified) | -0.22
CCOC(=O)[C@H]1C/C=C/C[C@H](C(=O)OCC)C(=O)O[C@H]2[C@@H](OC)O[C@H](CO)[C@@H](OC(=O)c3c(OC)cccc3OC)[C@@H]2OC1=O | 0.154
CO[C@H]1O[C@H](CO)[C@@H](OC(=O)Nc2ccc(Oc3ccccc3)cc2)[C@H](OC(=O)Nc2ccc3c(c2)OCO3)[C@H]1OC(=O)Nc1ccc2c(c1)OCO2 | 2.17
CCN(CC)c1ccc(N2CC=CC34O[C@@H]5C=CCCOC(=O)C5[C@H]3C(=O)N(CCCCCCO)[C@@H]4C2=O)cc1 (stereo partly specified) | -0.641
O=C(OCc1ccccc1)C1=CCC2c3[nH]c4ccccc4c3C(=O)C1N2S(=O)(=O)c1ccccc1[N+](=O)[O-] (stereo unspecified) | -4.43

Now turn to the next compound.
Q: Return the recorded z-score value; entry: COC(=O)[C@@]1(Cc2ccc(OC)cc2)[C@@H]2C(=CC(=O)[C@H]2CC(=O)C(=O)N2CCCC2)CN1C(=O)c1ccccc1
Result: -0.407

* * *

assay: FRG1 promoter luciferase signal modulators, primary screen, FRG1 inhibition for FSHD, cell-based, C2C12 myotubes, firefly/Renilla luciferase, luminescence (AID 1084); conditions: called active from +8 up or from −8 down
Calls of active or inactive are those of the source.
Bench note: report the call from 1.0 = active, 0.0 = inactive

A selection of reference data follows.
C=CCN1C(=O)[C@@]2(CC=C)N=C(c3ccc(OCCCO)cc3)O[C@H]2c2ccccc21 | 0.0
[N-]=[N+]=NCc1ccccc1[C@@H]1OC(c2ccc(OCCCO)cc2)=N[C@]1(Cc1ccccc1)C(N)=O | 0.0
CO[C@H]1O[C@H](CO)[C@@H](OC(=O)Nc2cccc(F)c2)[C@H](OC(=O)Nc2ccccc2)[C@@H]1OC(=O)Nc1ccccc1 | 0.0

Q: Could you kindly confirm the outcome this assay logged for O=C1N[C@@H](Cc2ccccc2)C(=O)N2[C@@H]1C[C@@H](C(=O)O)[C@H]2c1cccc(OCCO)c1 ?
Result: 1.0

Q: // return assay outcome for C=C[C@H](OC)[C@@H](OC(=O)Nc1ccc(OC)cc1)c1ccc(O)c(F)c1
Result: 0.0

Q: Test call, this compound: C=CCOC(=O)[C@H]1[C@@H]2C(=O)O[C@@H](c3ccccc3)[C@@H](c3ccccc3)N2[C@@H](c2ccc(OCCOC(=O)[C@H]3C[C@H]4C(=O)N[C@@H](CCCC[N+](C)(C)C)C(=O)N4[C@H]3c3ccc(O)cc3)cc2)[C@]12C(=O)Nc1ccc(I)cc12
Result: 0.0

Q: Outcome? CCCCCCc1nc(-c2ccc(OC)nc2)cc2c1[Si](C(C)C)(C(C)C)O[C@H]2c1ccccc1
Result: 0.0

Q: Per the records of this test, what outcome belongs to C=C(CCCC)/C(=C/C[C@@H](OC(C)=O)c1ccc(OCCO)cc1)c1cnc2ccccc2c1 ?
Result: 0.0
